Value source: patent US8133909B2

Listing of recorded Kb by entry.
- tested.on: human orexin-2 (hOX2) receptors (Homo sapiens, UniProt O43614)
- Construct: expressed in transfected cells
- Sequence (O43614 1-444): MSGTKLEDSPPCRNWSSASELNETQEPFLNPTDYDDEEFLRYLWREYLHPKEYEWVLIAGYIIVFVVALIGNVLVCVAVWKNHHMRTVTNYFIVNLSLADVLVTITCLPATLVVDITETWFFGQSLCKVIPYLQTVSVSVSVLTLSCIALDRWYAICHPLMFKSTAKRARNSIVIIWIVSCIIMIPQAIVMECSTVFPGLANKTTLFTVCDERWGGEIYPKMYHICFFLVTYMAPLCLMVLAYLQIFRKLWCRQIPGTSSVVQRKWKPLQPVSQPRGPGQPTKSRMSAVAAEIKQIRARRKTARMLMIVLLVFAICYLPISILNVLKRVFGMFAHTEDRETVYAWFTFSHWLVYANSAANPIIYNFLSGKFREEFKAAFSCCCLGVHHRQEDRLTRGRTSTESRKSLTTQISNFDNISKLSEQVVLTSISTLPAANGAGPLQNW
- experiment.description: Intracellular Ca2+ mobilization assay (FLIPR), antagonism of orexin-A
- Format: cell-based
- experimental.context: CHO(dHFr-) cells stably expressing hOX2; orexin-A at EC80 as agonist; antagonist applied 25 min before; Kb=IC50/(1+[A]/EC50); read-out: Kb (μM) OX2R (human)
- Procedure: Intracellular Ca^2+ Mobilization Assay The Chinese Hamster Ovary (dHFr—) mutant cell line stably expressing human orexin-1 (hOX1) or human orexin-2 (hOX2) receptors were maintained in Dulbecco's Modified Eagle Medium (1X) with GlutaMax™ 1, 4500 mg/L D-Glucose and Sodium Pyruvate (Catalog No. 31966-021, Invitrogen, Carlsbad, Calif.), 5% dialyzed fetal calf serum (Catalog No. 26400-044), 100 μg/ml penicillin and 100 μg/ml streptomycin. […]
Counter-ions that a name gives are not always drawn.
Remember to follow the number with its unit.

See these solved cases before continuing.
[[record]]
molecule = "O=C([C@@H](O)c1ccc(F)cc1)N(CCc1ccc(C(F)(F)F)nc1)c1ccc2c(c1)C(O)CCO2 (single isomer, unassigned) [Example 101]"
test_result = "0.0116 µM"

[[record]]
molecule = "O=C([C@@H](O)c1ccccc1)N(CCc1ccc(C(F)(F)F)nc1)c1ccc2c(c1)OCCO2"
test_result = "0.0142 µM"

[[record]]
molecule = "O=C([C@@H](O)c1ccccc1)N(CCc1ccc(C(F)(F)F)nc1)c1ccc2c(c1)[C@@H](O)CCO2"
test_result = "0.0243 µM"

[[record]]
molecule = "COc1cc(N(CCc2ccc(C(F)(F)F)cn2)C(=O)C(O)c2ccc(F)cc2)ccc1F (racemic)"
test_result = "0.0106 µM"

[[record]]
molecule = "Cc1csc(CCN(C(=O)[C@@H](N)c2ccccc2)c2ccc(C)c(C)c2)n1 [Example 67, hydrochloride]"
test_result = "0.073 µM"


Now take the following molecule into account.
Query: Need Kb, item `N[C@H](C(=O)N(CCc1ccc(C(F)(F)F)nc1)c1ccc2c(c1)CCCC2)c1ccccc1`
Reply: 0.0006 µM

----------
- tested.on: human orexin-2 (hOX2) receptors (Homo sapiens)
- Construct: expressed in transfected cells
- Sequence (O43614 1-444): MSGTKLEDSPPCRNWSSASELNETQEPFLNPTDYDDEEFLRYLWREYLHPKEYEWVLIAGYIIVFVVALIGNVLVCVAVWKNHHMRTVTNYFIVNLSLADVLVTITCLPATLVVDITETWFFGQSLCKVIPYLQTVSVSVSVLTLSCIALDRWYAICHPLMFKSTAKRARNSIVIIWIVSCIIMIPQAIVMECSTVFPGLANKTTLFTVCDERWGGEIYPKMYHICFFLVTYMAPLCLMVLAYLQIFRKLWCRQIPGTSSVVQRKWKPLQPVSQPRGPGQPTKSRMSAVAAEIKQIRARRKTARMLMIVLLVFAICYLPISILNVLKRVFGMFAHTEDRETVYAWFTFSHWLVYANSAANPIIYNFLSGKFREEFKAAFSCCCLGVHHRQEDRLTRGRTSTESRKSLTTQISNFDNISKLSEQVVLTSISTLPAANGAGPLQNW
- experiment.description: Intracellular Ca2+ mobilization assay (FLIPR), antagonism of orexin-A
- Assay type: cell-based
- experimental.context: CHO(dHFr-) cells stably expressing hOX2; orexin-A at EC80 as agonist; antagonist applied 25 min before; Kb=IC50/(1+[A]/EC50); read-out: Kb (μM) OX2R (human)
- Experimental: Intracellular Ca^2+ Mobilization Assay The Chinese Hamster Ovary (dHFr—) mutant cell line stably expressing human orexin-1 (hOX1) or human orexin-2 (hOX2) receptors were maintained in Dulbecco's Modified Eagle Medium (1X) with GlutaMax™ 1, 4500 mg/L D-Glucose and Sodium Pyruvate (Catalog No. 31966-021, Invitrogen, Carlsbad, Calif.), 5% dialyzed fetal calf serum (Catalog No. 26400-044), 100 μg/ml penicillin and 100 μg/ml streptomycin. […]
Listing of recorded Kb by entry.
Give a bare numeral; the unit µM is implied.

[[record]]
molecule = "Cc1cc(CCN(C(=O)[C@@H](O)c2ccccc2)c2ccc(C)c(C)c2)on1 [Example 70]"
tested_on = "human orexin-2 (hOX2) receptors (Homo sapiens)"
measure_unit = "µM"
test_result = 0.0863

[[record]]
molecule = "Cc1ccc(N(CCc2ccc(C(F)(F)F)nc2)C(=O)Cc2ccccc2)cc1C [Example 17]"
tested_on = "human orexin-2 (hOX2) receptors (Homo sapiens)"
measure_unit = "µM"
test_result = 0.0362

[[record]]
molecule = "CCn1nc(C)c2cc(N(CCc3ccc(C(F)(F)F)nc3)C(=O)[C@@H](O)c3ccccc3)ccc21 [Example 48]"
tested_on = "human orexin-2 (hOX2) receptors (Homo sapiens)"
measure_unit = "µM"
test_result = 0.07


Query: Need Kb, item COc1cc(N(CCc2ccc(C(F)(F)F)cn2)C(=O)C(O)c2ccc(F)cc2)ccc1Cl (racemic) [Example 79]
Reply: 0.0236

Query: And for O=C(C(O)c1ccc(F)cc1)N(CCc1ccc(C(F)(F)F)cn1)c1ccc(Cl)c(OC2CC2)c1 (racemic) [Example 103] ?
Reply: 0.0239

Query: And for Cc1ccc(N(CCc2ccc(C(F)(F)F)nc2)C(=O)[C@@H](NC2COC2)c2ccccc2)cc1C [Example 57] ?
Reply: 0.0016

Query: And for COc1ccc(N(CCc2ccc(C(F)(F)F)nc2)C(=O)[C@@H](N)c2ccccc2)cc1OC [Example 5] ?
Reply: 0.0005

Query: And for O=C([C@@H](O)c1ccc(F)cc1)N(CCc1ccc(C(F)(F)F)nc1)c1ccc2c(c1)CCCC2 [Example 60] ?
Reply: 0.0053

Query: And for Cc1ccc(N(CCc2ccc(C(F)(F)F)nc2)C(=O)[C@@H](C)c2ccccc2)cc1C [Example 24] ?
Reply: 0.0839
